# Tested on: HCV replicon
# Experimental Protocol: microbe, parasite or virus in culture
# Assay type: cell-based
# Condition Summary: Hepatitis C virus, 48 h, read-out: Replicon IC5Os
Let's look at some molecules and their measured IC50.

Short answer on HCV replicon for CCn1c(-c2ccc(NS(=O)(=O)CCCCl)cc2)c(C#N)c2ccc(OCCF)cc21 , IC50: 500 to 2000 nM

Others:
Short answer on HCV replicon for CCCS(=O)(=O)Nc1ccccc1-c1c(C#N)c2ccc(OC)cc2n1CC , IC50: < 500 nM

Short answer on HCV replicon for CCn1c(-c2cccc(NC(=O)OCCCCl)c2)c(C#N)c2ccc(OC)cc21 , IC50: 500 to 2000 nM
